target: Adenosine kinase (Homo sapiens); experiment: Activity of human ADK expressed in Escherichia coli BL21(DE3) cells assessed as compound phosphorylation by measuring conversion of compound to 5'-phosphate; parameters: concentration or dose not given beside the values
Sequence (P55263 2-362 limits assumed): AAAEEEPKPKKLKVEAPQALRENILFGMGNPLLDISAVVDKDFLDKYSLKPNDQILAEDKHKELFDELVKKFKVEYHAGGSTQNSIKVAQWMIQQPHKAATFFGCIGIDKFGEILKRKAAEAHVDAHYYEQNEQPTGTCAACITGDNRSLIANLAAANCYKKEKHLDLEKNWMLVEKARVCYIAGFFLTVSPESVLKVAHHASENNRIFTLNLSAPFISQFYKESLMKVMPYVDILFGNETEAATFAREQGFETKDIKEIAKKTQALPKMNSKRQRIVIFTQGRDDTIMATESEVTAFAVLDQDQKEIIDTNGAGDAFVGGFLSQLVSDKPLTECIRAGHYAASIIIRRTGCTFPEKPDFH
Measured Metric: Activity (%)

* C#Cc1cn([C@@H]2O[C@H](CO)[C@@H](O)[C@H]2O)c2ncnc(N)c12 | 62
* Nc1ncnc2c1c(-c1cc[nH]n1)cn2[C@@H]1O[C@H](CO)[C@@H](O)[C@H]1O | 7
* Nc1ncnc2c1c(-c1nccs1)cn2[C@@H]1O[C@H](CO)[C@@H](O)[C@H]1O | 3
* Nc1ncnc2c1c(-c1c[nH]cn1)cn2[C@@H]1O[C@H](CO)[C@@H](O)[C@H]1O | 47
* Nc1ncnc2c1c(-c1c[nH]nn1)cn2[C@@H]1O[C@H](CO)[C@@H](O)[C@H]1O | 37
